FYI, the data here is from the supplement of paper PMC12669032.

Test system: Parabacteroides distasonis
Test: growth AUC relative to DMSO control (fraction); higher = more growth (less inhibition)
Conditions: 20 µM; 24 h
result_type: growth AUC

compound	growth AUC
Cc1cc(C(C#N)c2ccc(Cl)cc2)c(Cl)cc1NC(=O)c1cc(I)cc(I)c1O (centres undefined)	0.00682
O=[N+]([O-])c1cc(C(F)(F)F)c(Cl)c([N+](=O)[O-])c1Nc1ncc(C(F)(F)F)cc1Cl	0.0128
CCCC1COC(Cn2cncn2)(c2ccc(Cl)cc2Cl)O1 (centres undefined)	0.874

# ---- query compound ----
Q: Given the entry CCCCOC(=O)[C@@H](C)Oc1ccc(Oc2ccc(C#N)cc2F)cc1 , report its measured growth AUC.
Result: 0.717

====

This listing pairs molecules with measured growth AUC.
Test system: Parabacteroides distasonis
Assay: growth AUC relative to DMSO control (fraction); higher = more growth (less inhibition)
Settings: 5 µM; 24 h
API note: the answer field is a bare number with no unit suffix.

molecule	growth AUC
O=[N+]([O-])c1cc(C(F)(F)F)c(Cl)c([N+](=O)[O-])c1Nc1ncc(C(F)(F)F)cc1Cl	0.859
Cc1cc(C(C#N)c2ccc(Cl)cc2)c(Cl)cc1NC(=O)c1cc(I)cc(I)c1O (centres undefined)	0.00935
CCCCOC(=O)[C@@H](C)Oc1ccc(Oc2ccc(C#N)cc2F)cc1	0.93

Q: Reported growth AUC for CCCC1COC(Cn2cncn2)(c2ccc(Cl)cc2Cl)O1 (centres undefined) : what is it?
Result: 1

====

System: Clostridium difficile
Assay: growth AUC relative to DMSO control (fraction); higher = more growth (less inhibition)
Conditions: 5 µM; 24 h
result_type: growth AUC
Just the number.

The examples below pair each entry with its known result.
compound	growth AUC
Cc1cc(C(C#N)c2ccc(Cl)cc2)c(Cl)cc1NC(=O)c1cc(I)cc(I)c1O (centres undefined)	0.0106
CCCCOC(=O)[C@@H](C)Oc1ccc(Oc2ccc(C#N)cc2F)cc1	0.984
CCCC1COC(Cn2cncn2)(c2ccc(Cl)cc2Cl)O1 (centres undefined)	1.01

Q: Would you mind telling me what growth AUC value was observed for O=[N+]([O-])c1cc(C(F)(F)F)c(Cl)c([N+](=O)[O-])c1Nc1ncc(C(F)(F)F)cc1Cl ?
Result: 0.995

====

Listed here: items and their measured growth AUC.
Tested on: Roseburia intestinalis
Assay: growth AUC relative to DMSO control (fraction); higher = more growth (less inhibition)
Conditions: 2.5 µM; 24 h
Could you keep your reply to the number by itself?

These recorded examples may help you get a feel for the data.
molecule	recorded_number
CCCCOC(=O)[C@@H](C)Oc1ccc(Oc2ccc(C#N)cc2F)cc1 [CYHALOFOP-BUTYL]	1.01
Cc1cc(C(C#N)c2ccc(Cl)cc2)c(Cl)cc1NC(=O)c1cc(I)cc(I)c1O (centres undefined) [CLOSANTEL]	0.246
O=[N+]([O-])c1cc(C(F)(F)F)c(Cl)c([N+](=O)[O-])c1Nc1ncc(C(F)(F)F)cc1Cl [FLUAZINAM]	1.01

Q: Quick check: growth AUC on Roseburia intestinalis, item CCCC1COC(Cn2cncn2)(c2ccc(Cl)cc2Cl)O1 (centres undefined) [PROPICONAZOLE] ?
Result: 0.971

====

System: Bacteroides uniformis
Test: growth AUC relative to DMSO control (fraction); higher = more growth (less inhibition)
Conditions: 10 µM; 24 h
growth AUC reference

Sample answers from the record:
compound	experimental_target	result
CCCC1COC(Cn2cncn2)(c2ccc(Cl)cc2Cl)O1 (centres undefined) [PROPICONAZOLE]	Bacteroides uniformis	1.02
CCCCOC(=O)[C@@H](C)Oc1ccc(Oc2ccc(C#N)cc2F)cc1 [CYHALOFOP-BUTYL]	Bacteroides uniformis	0.994
Cc1cc(C(C#N)c2ccc(Cl)cc2)c(Cl)cc1NC(=O)c1cc(I)cc(I)c1O (centres undefined) [CLOSANTEL]	Bacteroides uniformis	0.616

Q: Param item = O=[N+]([O-])c1cc(C(F)(F)F)c(Cl)c([N+](=O)[O-])c1Nc1ncc(C(F)(F)F)cc1Cl [FLUAZINAM] ; retrieve measured growth AUC.
Result: 0.996

====

Measured growth AUC, listed per entry for reference.
System: Escherichia coli IAI1
Test: growth AUC relative to DMSO control (fraction); higher = more growth (less inhibition)
Conditions: 10 µM; 24 h
Write the value as a bare number.

# example entries with known answers
compound	experimental_target	growth AUC
CCCC1COC(Cn2cncn2)(c2ccc(Cl)cc2Cl)O1 (centres undefined)	Escherichia coli IAI1	0.971
O=[N+]([O-])c1cc(C(F)(F)F)c(Cl)c([N+](=O)[O-])c1Nc1ncc(C(F)(F)F)cc1Cl	Escherichia coli IAI1	1.03
Cc1cc(C(C#N)c2ccc(Cl)cc2)c(Cl)cc1NC(=O)c1cc(I)cc(I)c1O (centres undefined)	Escherichia coli IAI1	1.03

Would you kindly look at the next entry?
Q: Name the recorded growth AUC for CCCCOC(=O)[C@@H](C)Oc1ccc(Oc2ccc(C#N)cc2F)cc1 .
Result: 0.975
